study-system: Calmodulin-1 (Homo sapiens)
test-details: CALM1 binders on microarrays, EGTA buffer, profiling panel, biochemical, small-molecule microarray, Cy5-labelled CALM1 (AID 1111);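 note: labelled calmodulin applied in Tris saline Tween buffer holding calcium plus EGTA and DTT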
assay-conditions: Cy5-CALM1 binding fluorescence, higher = more signal
measurement-type: composite z-score
Give bare numbers.

Solved cases below.
{"structure-string": "Cc1ccc(F)cc1S(=O)(=O)N[C@@H]1CCN(Cc2ccc3[nH]ccc3c2)C1", "composite z-score": -0.46}
{"structure-string": "COCCCNC(=O)[C@@]1(Sc2ccc(C)cc2)CC(=O)N(C2CCCCC2)[C@@H]1c1ccc(CO)cc1I", "composite z-score": 0.99}
{"structure-string": "C=CC[C@@]1(C(=O)N(C)C)N=C(c2ccc(OCCCO)cc2)O[C@@H]1c1ccccc1", "composite z-score": 0.401}
{"structure-string": "C=CC[C@]1(C(=O)N(C)C)COC(c2ccc(OCCCO)cc2)=N1", "composite z-score": 2.62}

Asked: // lookup composite z-score for "CCCCC=C[C@@H](NC(=O)c1ccc(C(F)(F)F)cc1)c1ccccc1"
Given back: -0.0968

----------
test-details: yeast growth modulation, basal conditions, primary screen, YJM789 clinical isolate, OD600, 24 h (AID 1089);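 note: growth of clinical yeast isolate S. cerevisiae YJM 789 seeded 1000 cells per well; test concentration not given here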
assay-conditions: S. cerevisiae YJM789 growth, higher = more signal, called active from +8 up or from −8 down
measurement-type: z-score
Answers are plain numbers.

{"structure-string": "COc1ccc([Si](C)(C)[C@H]2[C@H](CC(=O)N3Cc4ccccc4C[C@H]3CO)O[C@@]3(C(=O)N(Cc4cccc(N5C(=O)c6cccc7cccc5c67)c4)c4ccccc43)[C@@H]2C)cc1", "z-score": -0.0979}

Give one value of z-score per listed molecule.
1. O=C1O[C@H](c2ccccc2)[C@H](c2ccccc2)N2[C@H]1[C@@H](C(=O)N1CCN(c3ncccn3)CC1)[C@]1(C(=O)Nc3ccccc31)[C@H]2c1ccc(O)cc1
2. C=C(COC)/C(=C/C[C@H](OC(=O)c1ccncc1)c1ccc(OCCO)cc1)c1cc(C(=O)OC)ccc1OC
3. C=C(/C(=C/C[C@@H](OC(C)=O)c1ccccc1OCCO)c1cc(C(=O)OC)ccc1OC)C(C)C

Given back:
1: 1.92; 2: -0.823; 3: 0.343

----------
Would you kindly list z-score for each of these compounds?
test-details: RPMI8226 myeloma cell viability, profiling panel, resazurin fluorescence, basal, 24 h, PK04 Diversity Set (AID 1180);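 note: RPMI8826 multiple myeloma cell line at 5000 cells per well; test concentration not given here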
assay-conditions: higher = more signal
Give bare numbers.

{"compound": "COc1ccc(C#Cc2ccc3c(c2)[C@]2(C(=O)N3)[C@H](c3ccc(OCCO)cc3)N3[C@H](c4ccccc4)[C@H](c4ccccc4)OC(=O)[C@H]3[C@@H]2C(=O)O)cc1", "test-result": 0.149}
{"compound": "CC(C)C[C@@H]1NC(=O)[C@@]23C(=O)N[C@@H](Cc4ccccc4)C2[C@H](C)[C@@]2(C)O[C@H]2C3/C=C/C/C=C\\CNC(=O)[C@@H](CC(C)C)NC1=O (stereo partly drawn)", "test-result": 0.292}

// next entry
Asked: // lookup z-score for COc1ccc(C(O)C2C=CC3C(=O)N(C)C(=O)C3N2Nc2ccc([N+](=O)[O-])cc2[N+](=O)[O-])cc1OCc1ccccc1 (stereo not drawn)
Given back: -1.39

----------
test-details: fission yeast growth modulation, primary screen, strain 972, OD600, 24 h, no modulator (AID 1090);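 note: basal condition with compound alone and no growth modifier present; test concentration not given here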
assay-conditions: S. pombe 972 growth, higher = more signal, called active from +8 up or from −8 down
Calls of active or inactive are those of the source.
Would you kindly list z-score for each of these molecules?

{"molecule": "CC(C)=CCN(C(=O)C#Cc1ccccc1)[C@H](CO)c1ccccc1", "test-result": "-4.9 (inactive)"}

Give one value of z-score per listed molecule.
1. CN(C)CCCC[C@@H]1NC(=O)[C@@H]2C[C@H](C(=O)NCc3ccc(F)cc3)[C@H](c3ccc(O)cc3)N2C1=O
2. COC(=O)[C@]1(CO)N=C(c2ccc(OCCCO)cc2)O[C@@H]1c1ccccc1CN=[N+]=[N-]
3. CO[C@H]1O[C@H](CO)[C@@H](OC(=O)Nc2ccc3c(c2)OCO3)[C@@H]2OC(=O)[C@@H](Cc3ccccc3)C/C=C/C[C@H](Cc3ccccc3)C(=O)O[C@@H]12
4. C=C(CCCC)/C(=C/C[C@H](OC(C)=O)c1cccc(OCCO)c1)c1cc(C(=O)OC)ccc1OC
5. C=CCC(OC(C)=O)[C@@H]1[C@@H](N(Cc2ccc(-c3cccc(C(F)(F)F)c3)o2)C(=O)Cc2ccc(F)cc2)c2cc(OCCCO)ccc2N1C(=O)c1ccc2ccccc2n1 (some centres undefined)
6. COc1cc(OC)c(C(O)C2C=CC3C(=O)N(c4ccccc4)C(=O)C3N2Nc2ccccc2F)cc1Br (centres undefined)
7. COc1ccc([Si](C)(C)[C@H]2[C@H](CC(=O)N3Cc4ccccc4C[C@H]3CO)O[C@@]3(C(=O)N(Cc4cccc(N5C(=O)c6cccc7cccc5c67)c4)c4ccccc43)[C@@H]2C)cc1
8. CCCCN1CC=CC23O[C@@H]4/C=C\CCC(C)OC(=O)C4[C@H]2C(=O)N(C(C)CO)[C@@H]3C1=O (some centres undefined)

Given back:
1: -1.4 (inactive); 2: 0.44 (inactive); 3: 0.78 (inactive); 4: -0.602 (inactive); 5: 0.15 (inactive); 6: 1.77 (inactive); 7: 0.39 (inactive); 8: -0.944 (inactive)

Give one value of z-score per listed molecule.
1. O=C1O[C@H](c2ccccc2)[C@H](c2ccccc2)N2[C@H]1[C@@H](C(=O)NC[C@H](O)c1ccccc1)[C@]1(C(=O)Nc3ccc(C#CCCO)cc31)[C@H]2c1ccccc1OCCO
2. CCCCCCc1nc(-c2ccc(OC)nc2)cc2c1[Si](C(C)C)(C(C)C)OC2
3. CN(C)CCCC[C@@H]1NC(=O)[C@@H]2C[C@H](C(=O)NCCCCCCNC(=O)CS)[C@H](c3cccc(OCCO)c3)N2C1=O
4. C#CCN=C(N)N
5. O=C1C2C=CC(C(O)C(c3ccccc3)c3ccccc3)N(Nc3ccccc3)C2C(=O)N1c1ccccc1 (centres undefined)

Given back:
1. -2.23 (inactive)
2. -0.283 (inactive)
3. -0.0576 (inactive)
4. -0.349 (inactive)
5. 0.0855 (inactive)

Give one value of z-score per listed molecule.
1. CC#CCO[Si](C#CCCCCCC)(C(C)C)C(C)C
2. [N-]=[N+]=NCc1ccccc1C[C@]1(C(=O)NCc2ccccc2)N=C(c2ccc(OCCCO)cc2)O[C@H]1c1ccccc1CN=[N+]=[N-]
3. COc1ccc([Si](C)(C)[C@@H]2[C@@H](CC(=O)N(CCO)Cc3ccccc3)O[C@]3(C(=O)N(Cc4ccc(N5CCC5=O)cc4)c4ccccc43)[C@H]2C)cc1
4. C=C(CC1([C@@H](NP(=O)(c2ccccc2)c2ccccc2)[C@H]2C[C@@H]2CCN(C(=O)OCC)S(=O)(=O)c2ccc(C)cc2)CC1)c1ccccc1

Given back:
-19.1 (active)
0.736 (inactive)
-0.246 (inactive)
0.722 (inactive)

----------
study-system: E3 ubiquitin-protein ligase XIAP (Homo sapiens) (UniProt P98170)
Sequence (P98170 whole entry, looked up): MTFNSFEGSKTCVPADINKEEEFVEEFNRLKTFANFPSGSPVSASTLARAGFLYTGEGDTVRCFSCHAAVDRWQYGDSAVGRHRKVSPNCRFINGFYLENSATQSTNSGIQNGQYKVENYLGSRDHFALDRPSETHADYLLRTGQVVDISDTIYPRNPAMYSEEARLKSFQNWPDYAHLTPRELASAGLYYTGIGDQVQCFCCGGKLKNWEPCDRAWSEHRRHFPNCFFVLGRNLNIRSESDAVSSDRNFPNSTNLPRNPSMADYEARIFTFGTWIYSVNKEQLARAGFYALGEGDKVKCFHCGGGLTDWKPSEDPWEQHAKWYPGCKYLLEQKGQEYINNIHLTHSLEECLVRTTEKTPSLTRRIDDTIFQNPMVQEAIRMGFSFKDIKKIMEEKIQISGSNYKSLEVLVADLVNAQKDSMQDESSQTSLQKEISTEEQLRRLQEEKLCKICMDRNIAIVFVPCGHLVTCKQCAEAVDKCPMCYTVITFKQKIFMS
test-details: XIAP binders, primary screen, biophysical, small-molecule microarray, fluorescence 635 nm (AID 1181);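 note: score merges 667 nm emission and signal to noise over triplicate slides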
assay-conditions: small-molecule microarray binding, higher = more signal
measurement-type: composite z-score

Solved cases below.
{"molecule": "COc1ccccc1CN1C(=O)c2ccccc2[C@](Cc2ccccc2I)(C(=O)NCCCN(C)C)[C@@H]1c1ccc(CO)cc1", "test-result": -0.175}
{"molecule": "CN(C)C(=O)[C@@]1(CCS(=O)(=O)c2ccccc2)N=C(c2ccc(OCCCO)cc2)O[C@H]1c1ccccc1N=[N+]=[N-]", "test-result": -0.0676}
{"molecule": "O=C1C2C=CC(C(O)C(c3ccccc3)c3ccccc3)N(Nc3ccccc3)C2C(=O)N1c1ccccc1 (centres undefined)", "test-result": 0.34}

// next entry
Asked: // lookup composite z-score for O=C1C2C=CC(C(O)c3cccc(O)c3)N(Nc3ccccc3F)C2C(=O)N1c1ccccc1 (centres undefined)
Given back: 0.0345

----------
System: Noggin (protein binding on small-molecule microarray)
test-details: Noggin binders on small-molecule microarray, primary screen, biochemical, 635/667 nm fluorescence (AID 1095);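 note: score merges 667 nm feature fluorescence with signal to noise over triplicate slides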
assay-conditions: 635 nm fluorescence, higher = more signal
Would you kindly list composite z-score for each of these compounds?
Answers are plain numbers.

Solved cases below.
{"compound": "COCCOC(=O)N1C(=O)[C@@]2(c3cc(C#Cc4ccc(OC)cc4)ccc31)[C@H](C(=O)N1CCCCCCC1)[C@H]1C(=O)O[C@H](c3ccccc3)[C@H](c3ccccc3)N1[C@@H]2c1ccccc1OCCO", "composite z-score": 1.91}
{"compound": "CCCCC(O)C1C=CC2C(=O)NC(=O)C2N1Nc1ccccn1 (stereo unspecified)", "composite z-score": -0.0426}

Give one value of composite z-score per listed compound.
1. CN(C)CCCNC(=O)[C@@]1(Cc2ccccc2I)c2ccccc2C(=O)N(Cc2ccccc2)[C@H]1c1ccc(CO)cc1
2. CCCC[C@H]1OB(O)C[C@H]2C1=C(C)C[C@H]1C(=O)C=CC(=O)[C@H]12
3. C=CCOC(=O)[C@H]1[C@@H]2C(=O)O[C@@H](c3ccccc3)[C@@H](c3ccccc3)N2[C@@H](c2ccc(OCCOC(=O)[C@@H]3C[C@@H]4C(=O)N[C@@H](CC(C)C)C(=O)N4[C@@H]3c3ccc(O)cc3)cc2)[C@]12C(=O)Nc1ccc(I)cc12
4. COCCOC(=O)N1C(=O)[C@@]2(c3ccccc31)[C@H](c1ccc(OCCO)cc1)N1[C@H](c3ccccc3)[C@H](c3ccccc3)OC(=O)[C@H]1[C@@H]2C(=O)N1CCN(c2ncccn2)CC1

Given back:
0.557
0.782
1.23
1.34
